These data points were gathered from patent US20140079722A1.

Test system: primary human renal epithelial cells (HREpC)
testName: In vitro normal cell cytotoxicity
Format: cell-based
conditionDetails: 72 h
metric: EC50
Respond with a number, then the unit of measure.

C[C@@H]1O[C@@H](O[C@@H]2C=C3CC[C@@H]4[C@H](CC[C@]5(C)[C@@H](c6ccc(=O)oc6)CC[C@]45O)[C@@]3(C)CC2)[C@H](O)[C@H](O)[C@H]1O; 10 nM

// next item, EC50 requested
Qu. # EC50 lookup, item C[C@H]1O[C@@H](O[C@H]2[C@@H](O)C[C@H](O[C@H]3[C@@H](O)C[C@H](O[C@H]4CC[C@@]5(C)[C@H](CC[C@@H]6[C@@H]5CC[C@]5(C)[C@@H](C7=CC(=O)OC7)CC[C@]65O)C4)O[C@@H]3C)O[C@@H]2C)C[C@H](O)[C@@H]1O
Ans. 135 nM
